biological target: T1, recombinant human domain 1-3His6 of the cation-independent mannose-6-phosphate receptor (human, UniProt P11717 41-467); assay: BLI exp 1, dissoc pH 5
T1 construct: Biotinylated (NHS-PEG4-biotin) for BLI; Glycosylated; also called hDom1-3His6; hCI-M6PRD1-D3
API: label(entry) gives condition met if the entry's Kd is strictly smaller than 10 nM; on equality or larger values it gives condition not met.

- Binder: "anti-CI-M6PR VHH3 (VHH, His6-tagged; made in Pichia pastoris) VHH: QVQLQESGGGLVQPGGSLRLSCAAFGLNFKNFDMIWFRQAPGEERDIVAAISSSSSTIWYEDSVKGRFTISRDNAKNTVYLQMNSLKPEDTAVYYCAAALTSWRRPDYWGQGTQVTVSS"
  Answer Label: "condition met"
- Binder: "anti-CI-M6PR VHH9 (VHH, His6-tagged; made in Pichia pastoris) VHH: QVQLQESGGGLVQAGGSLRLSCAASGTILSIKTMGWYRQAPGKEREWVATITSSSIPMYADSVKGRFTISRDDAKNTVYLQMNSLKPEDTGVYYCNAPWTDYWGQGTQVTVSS"
  Answer Label: "condition not met"
- Binder: "anti-CI-M6PR VHH11 (VHH, His6-tagged; made in Pichia pastoris) VHH: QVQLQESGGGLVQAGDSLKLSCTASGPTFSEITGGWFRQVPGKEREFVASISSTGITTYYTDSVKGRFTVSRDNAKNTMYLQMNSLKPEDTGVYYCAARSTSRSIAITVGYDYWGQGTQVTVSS"
  Answer Label: "condition not met"
- Binder: "anti-CI-M6PR VHH8 (VHH, His6-tagged (Pichia pastoris)) VHH: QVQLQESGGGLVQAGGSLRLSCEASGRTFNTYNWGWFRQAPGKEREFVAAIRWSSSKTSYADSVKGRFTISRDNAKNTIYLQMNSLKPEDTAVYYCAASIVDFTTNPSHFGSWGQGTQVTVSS"
  Answer Label: "condition not met"
- Binder: "anti-CI-M6PR VHH6 (VHH, His6-tagged; made in E. coli) VHH: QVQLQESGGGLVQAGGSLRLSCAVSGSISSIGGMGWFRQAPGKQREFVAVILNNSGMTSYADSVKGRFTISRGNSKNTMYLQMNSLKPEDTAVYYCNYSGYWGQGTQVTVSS"
  Answer Label: "condition met"
- Binder: "anti-CI-M6PR VHH7 (VHH, His6-tagged (Pichia pastoris)) VHH: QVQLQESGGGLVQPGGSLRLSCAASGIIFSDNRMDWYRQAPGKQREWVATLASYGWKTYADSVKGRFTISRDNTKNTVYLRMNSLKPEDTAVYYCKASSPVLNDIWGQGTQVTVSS"
  Answer Label: "condition not met"
- Binder: "anti-CI-M6PR VHH5 (VHH, His6-tagged; made in Pichia pastoris, later also in E. coli WK6) VHH: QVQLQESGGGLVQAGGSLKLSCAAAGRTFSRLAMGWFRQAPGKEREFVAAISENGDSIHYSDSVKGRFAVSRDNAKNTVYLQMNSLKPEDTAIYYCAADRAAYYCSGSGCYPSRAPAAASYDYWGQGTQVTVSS"
  Answer Label: "condition met"
- Binder: "anti-CI-M6PR VHH1 (VHH, His6-tagged; made in Pichia pastoris, later also in E. coli WK6) VHH: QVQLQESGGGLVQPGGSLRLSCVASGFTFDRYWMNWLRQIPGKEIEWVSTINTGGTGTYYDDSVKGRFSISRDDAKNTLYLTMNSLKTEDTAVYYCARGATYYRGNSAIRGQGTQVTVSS"
  Answer Label: "condition not met"
